- Assayed Target: human hNET (Homo sapiens)
- Protocol Summary: Norepinephrine (NE) uptake assay in MDCK-Net6 cells
- Experimental Setup: [3H]NE uptake, MDCK-Net6 cells stably transfected with hNET
pEC50: −log10 of the molar value. Where a name gives a salt, the structure may show the parent alone.
Attribute Measured: pEC50

CNC[C@@H](O)[C@H](c1cccc(F)c1)n1ccc2cc(OCc3ccccc3)ccc21 [Example 24, hydrochloride]	7.44
CNC[C@@H](O)[C@H](c1cc(F)cc(Cl)c1)n1ccc2ccccc21 [Example 70, hydrochloride]	7.21
CNC[C@@H](O)[C@H](c1cccc(F)c1)n1cc(-c2ccc(F)cc2F)c2ccccc21 [Example 38, hydrochloride]	6.87
NC[C@@H](O)[C@H](c1ccccc1)n1ccc2cc(OCc3ccccc3)ccc21 [Example 82, hydrochloride]	6.55
CNC[C@@H](O)[C@H](c1cccc(F)c1)n1ccc2cc(O)ccc21 [Example 66, hydrochloride]	8.52

I. CNC[C@@H](O)[C@H](c1ccccc1)n1ccc2cc(OCc3cccc(C)c3)ccc21 [Example 15, hydrochloride]
II. CCC1CN([C@@H](c2ccccc2)[C@H](O)CNC)c2ccccc21 (stereo partly shown) [Example 59, hydrochloride]
Query block: Please state the entry with greater pEC50 among I and II . Kindly give the label for the entry you pick.
Result block: II

* * *

// inhibition at 1 µM lookup, one value per entry
- Assayed Target: human 5-HT2A receptor (Homo sapiens)
- Construct: expressed in transfected cells; host or cells: CHO
- Sequence (P28223 whole entry): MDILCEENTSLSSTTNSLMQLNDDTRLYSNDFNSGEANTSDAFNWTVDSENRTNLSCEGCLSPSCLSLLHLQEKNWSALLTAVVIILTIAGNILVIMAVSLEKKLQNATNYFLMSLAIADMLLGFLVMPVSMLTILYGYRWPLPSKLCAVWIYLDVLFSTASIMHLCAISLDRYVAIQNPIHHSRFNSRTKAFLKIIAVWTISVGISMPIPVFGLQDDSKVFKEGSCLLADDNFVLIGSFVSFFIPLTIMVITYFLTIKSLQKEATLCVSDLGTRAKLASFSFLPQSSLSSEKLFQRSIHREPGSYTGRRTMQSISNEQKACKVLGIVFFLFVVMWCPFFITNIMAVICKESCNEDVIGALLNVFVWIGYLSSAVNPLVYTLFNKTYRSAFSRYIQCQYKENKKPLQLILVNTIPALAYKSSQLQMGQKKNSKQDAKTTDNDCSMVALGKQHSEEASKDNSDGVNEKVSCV
- Protocol Summary: 5-HT2A FLIPR assay (calcium response to DOI) in CHO cells
- Format: cell-based
- Experimental Setup: CHO, read-out: 5-HT2A Percentage inhibition at 1 μM
Structures can show the parent of a compound that is named as a salt.
// note: answer is a bare numeric in %

NC[C@@H](O)[C@H](c1ccccc1)N1C(=O)C2(CCCCC2)c2ccc(F)cc21 [Example 95, hydrochloride]	44

Param item: O[C@H](CN1CCCCC1)[C@H](c1ccccc1)n1ccc2cc(OCc3ccccc3)ccc21 [Example 90, hydrochloride] ; param system: human 5-HT2A receptor (Homo sapiens); output inhibition at 1 µM: 25

Param item: NC[C@@H](O)[C@H](c1ccccc1)N1C(=O)C2(CCCCC2)c2cc(F)ccc21 [Example 99, hydrochloride] ; param system: human 5-HT2A receptor (Homo sapiens); output inhibition at 1 µM: 7

Param item: CNC[C@@H](O)[C@H](c1ccccc1)N1CC2(CCCCC2)c2ccccc21 [Example 33, hydrochloride] ; param system: human 5-HT2A receptor (Homo sapiens); output inhibition at 1 µM: 13

* * *

- Assayed Target: human hNET (Homo sapiens, UniProt P23975)
- Sequence (P23975 whole entry): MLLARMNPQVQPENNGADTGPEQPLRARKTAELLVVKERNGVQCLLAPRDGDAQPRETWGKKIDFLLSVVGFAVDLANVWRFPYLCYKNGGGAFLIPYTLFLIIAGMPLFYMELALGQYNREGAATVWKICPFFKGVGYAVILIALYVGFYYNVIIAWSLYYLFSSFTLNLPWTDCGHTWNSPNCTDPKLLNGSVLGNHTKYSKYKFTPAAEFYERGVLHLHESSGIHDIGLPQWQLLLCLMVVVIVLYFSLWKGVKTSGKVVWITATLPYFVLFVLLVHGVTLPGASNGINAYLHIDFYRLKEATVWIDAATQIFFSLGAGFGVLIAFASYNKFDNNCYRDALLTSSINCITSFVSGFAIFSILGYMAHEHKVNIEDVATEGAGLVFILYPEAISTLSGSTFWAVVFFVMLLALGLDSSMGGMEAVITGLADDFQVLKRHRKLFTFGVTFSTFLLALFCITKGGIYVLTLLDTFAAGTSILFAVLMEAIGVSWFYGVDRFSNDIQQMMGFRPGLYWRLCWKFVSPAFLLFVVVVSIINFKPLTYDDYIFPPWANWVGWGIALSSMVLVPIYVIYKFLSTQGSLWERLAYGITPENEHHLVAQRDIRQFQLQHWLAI
- Protocol Summary: Norepinephrine (NE) uptake assay in MDCK-Net6 cells
- Experimental Setup: [3H]NE uptake, MDCK-Net6 cells stably transfected with hNET
Counter-ions that a name gives are not always drawn.
Attribute Measured: EC50 (nM)

The cases that follow already have their EC50 on record.
CNC[C@@H](O)[C@H](c1ccccc1)n1ccc2cc(NC(=O)c3ccccc3)ccc21 [Example 75, hydrochloride]	299
CNC[C@@H](O)[C@H](c1ccccc1)n1ccc2cc(OCc3ccc(Cl)cc3)ccc21 [Example 10, hydrochloride]	67
CNC[C@@H](O)[C@H](c1ccccc1)n1ccc2cc(OCc3ccccc3OC)ccc21 [Example 5, hydrochloride]	196

I. CNC[C@@H](O)[C@H](c1cccc(F)c1)n1cc(-c2ccccc2OC(F)(F)F)c2ccccc21 [Example 34, hydrochloride]
II. CNC[C@@H](O)[C@H](c1cccc(F)c1)n1cc(-c2ccc(F)cc2)c2ccccc21 [Example 36, hydrochloride]
Query block: Lower value for measured EC50? Options: I , II Kindly give the label for the entry you pick.
Result block: I
(I: 327 nM, II: 711 nM)
